- Test system: A549 NSCLC
- Protocol details: NCI tumour cell line growth inhibition, 48 h; in the data active = GI50 below about 0.43 µM; inactive = the rest
Outcomes: active, inactive

{"Compound": "O=C1c2ccn(CCCCN3CCOCC3)c2C(=O)c2c1c(O)c1ccccc1c2O", "Answer label": "inactive"}
{"Compound": "COC[C@H]1C(=O)NCC(=O)N2NCCC[C@H]2C(=O)N(O)[C@H](C)C(=O)O[C@@H](C(C)C)[C@H](NC(=O)[C@](C)(O)[C@]2(O)CC[C@@H](CC(C)C)[C@H](C)O2)C(=O)N2NCCC[C@@H]2C(=O)N1O", "Answer label": "active"}
{"Compound": "COc1ccc(-c2nc(-c3nc4ccc(F)cc4[nH]3)cc3c2[nH]c2ccccc23)cc1", "Answer label": "inactive"}
{"Compound": "COc1ccc2c(c1)C(=O)c1c-2c(NCCCN(C)C)nc2ccccc12", "Answer label": "inactive"}
{"Compound": "COc1ccc2c(c1)Oc1nc(N)c(C#N)c(N)c1C2Sc1ccc(SC)cc1 (stereo not drawn)", "Answer label": "inactive"}
{"Compound": "COc1ccc(-c2cc3cccc(OC)c3c(=O)o2)cc1OC", "Answer label": "inactive"}
{"Compound": "COc1ccccc1-c1cc2c3c(nc4ccccc42)C(=O)c2cccnc2-c3n1", "Answer label": "inactive"}
{"Compound": "O=C(c1ccccc1)c1ccc(-c2ccc(O)cc2)cc1", "Answer label": "inactive"}
{"Compound": "CCOc1ccc(NC(=O)Nc2cc(C(C)C)ccc2C)cc1", "Answer label": "inactive"}
{"Compound": "Cc1cc(N(CCCl)CCCl)ccc1C=Nc1cccnc1", "Answer label": "inactive"}
{"Compound": "c1ccc2c(c1)O[As](O[As]1Oc3ccccc3O1)O2", "Answer label": "inactive"}
{"Compound": "COC1=CC(c2ccc[nH]2)=N/C1=C\\c1[nH]c(C)c(C(=O)CCC(=O)Oc2ccc3c(c2)CCC2C3CC[C@]3(C)C(=O)CC[C@@H]23)c1C (stereo partly drawn)", "Answer label": "inactive"}
{"Compound": "O=C(Cn1ccnc1[N+](=O)[O-])N(CCO)CCO", "Answer label": "inactive"}

Hey, just so you know, these numbers are from PubChem BioAssay (NCI).
